# Plant response rating (0 to 10 scale), Blackgrass listing for each entry below
Tested on: blackgrass
Experiment: Test B preemergence/postemergence greenhouse plant response rating 0 to 10
Assay type: in vivo, Alopecurus myosuroides
Conditions: POSTEMERGENCE, Rate 50 g/ha
API doc: respond with a numeric literal and nothing else, no unit.

Please review the following examples before continuing.
* CCCN1C(=O)COc2cc(F)c(-c3nn4c(c3Cl)CCCC4)cc21 [Compound 32] | 5
* CC(C)Oc1cc(-c2nn3c(c2Cl)CCCC3)c(F)cc1Cl [Compound 21] | 3
* Clc1ccc(-c2nc3n(c2Cl)CCC=C3)c(Cl)c1 [Compound 1] | 0

Task: Field request: Plant response rating (0 to 10 scale), Blackgrass | item: CC(C)N1C(=O)COc2cc(F)c(-c3nn4c(c3Cl)CCCC4)cc21 [Compound 31]
Result: 4

###

Test system: bedstraw
Experiment: Test B preemergence/postemergence greenhouse plant response rating 0 to 10
Type: in vivo, Galium aparine
Details: POSTEMERGENCE, Rate 200 g/ha; 0 to 10 scale
measurement kind: Plant response rating, Bedstraw
Give your answer as a number; write no unit.

Task: Which measured Plant response rating, Bedstraw belongs to CC(C)OC(=O)c1cc(-c2nn3c(c2Cl)CCCC3)c(F)cc1Cl , tested on bedstraw?
Result: 9

###

System: morningglory
Assay: Test B preemergence/postemergence greenhouse plant response rating 0 to 10
Assay type: in vivo, Ipomoea hederacea
Conditions: Rate 200 g/ha, POSTEMERGENCE; 0 to 10 scale
The entries below come with measured Plant response rating, Morningglory values attached.
Lab note: record the figure alone, no unit after it.

Examples with answers:
* CCOC(=O)COc1cc(-c2nn3c(c2Cl)CCCC3)c(F)cc1Cl [Compound 42] | 10
* C=CCOc1cc(-c2nn3c(c2Br)CCCC3)c(F)cc1Cl [Compound 37] | 8
* COC(=O)c1cc(-c2nn3c(c2Cl)CCCC3)c(F)cc1Cl [Compound 43] | 10
* Fc1cc(Cl)ccc1-c1nn2c(c1Br)CCCC2 [Compound 52] | 9

Task: // lookup Plant response rating, Morningglory for CCC(=O)Oc1cc(-c2nn3c(c2Cl)CCCC3)c(F)cc1Cl [Compound 47]
Result: 10

Task: Do the same for C#CC(C)Oc1cc(-c2nn3c(c2Br)CCCC3)c(F)cc1Cl (stereo not drawn) [Compound 66] please
Result: 10

###

Test system: giant foxtail
Experiment: Test B preemergence/postemergence greenhouse plant response rating 0 to 10
Assay type: in vivo, Setaria faberii
Details: PREEMERGENCE, Rate 10 g/ha; 0 to 10 scale
Items are presented alongside their recorded Plant response rating, Giant foxtail.
Give the figure only, with no unit attached.

Task: Plant response rating, Giant foxtail for CCCN1C(=O)COc2cc(F)c(-c3nn4c(c3Br)CCCC4)cc21 ?
Result: 0

Task: Subsequent entry: CCN1C(=O)COc2cc(F)c(-c3nn4c(c3Cl)CCCC4)cc21
Result: 0

Task: // next record CC(C#N)Oc1cc(-c2nn3c(c2Cl)CCCC3)c(F)cc1Cl (centres unmarked)
Result: 0

Task: Here is the next compound: CC(C)N1C(=O)COc2cc(F)c(-c3nn4c(c3Cl)CCCC4)cc21
Result: 0

Task: Also, C#CCN1C(=O)COc2cc(F)c(-c3nn4c(c3Cl)CCCC4)cc21 please.
Result: 3

Cited source: patent US6358885B1
